Biological target: KRAS G12A (Homo sapiens (Human), UniProt P01116, G12A)
Sequence (P01116 other isoform, or with tags, fused parts or gaps G12A (already in the parent)): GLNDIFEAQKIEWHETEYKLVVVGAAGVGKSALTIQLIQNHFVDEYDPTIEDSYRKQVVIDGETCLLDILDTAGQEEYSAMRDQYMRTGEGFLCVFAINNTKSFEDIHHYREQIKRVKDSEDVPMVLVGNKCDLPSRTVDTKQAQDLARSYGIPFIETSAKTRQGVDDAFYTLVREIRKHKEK
Test: SOS-catalyzed nucleotide exchange assay (GNE), KRAS G12A
Details: TR-FRET, 60 min preincubation
Protocol: Procedure for SOS-Catalyzed Nucleotide Exchange Assay for KRAS-WT, G12C/D/V/A/R/S, G13D, Q61H, HRAS-WT, and NRAS-WT Recombinant KRAS-G12C protein used in this assay has an additional triple mutation (C51S/C80L/C118S). […] The time-resolved fluorescence resonance energy transfer (TR-FRET) signal is measured on an Envision (PerkinElmer) plate reader: Excitation filter=340 nm; emission1=495 nm; emission2=520 nm; dichroic mirror=D400/D505; delay time=100 ms. […]
pIC50: −log10 of the molar value.

CHEMICAL_STRING: CCc1c(F)ccc2cc3[nH]nc(C)c3c(-c3nc4c5c(nc(OC[C@@]67CCCN6C/C(=C\F)C7)nc5c3F)N3CCCOC[C@H]3CO4)c12
TESTED_SYSTEM: KRAS G12A (Homo sapiens (Human), UniProt P01116, G12A)
REPORTED_RELATION: =
pIC50: 8.89
--
CHEMICAL_STRING: CCc1c(F)ccc2cc3[nH]ncc3c(-c3nc4c5c(nc(OC[C@@]67CCCN6C[C@H](F)C7)nc5c3F)N3CCCOC[C@H]3CO4)c12
TESTED_SYSTEM: KRAS G12A (Homo sapiens (Human), UniProt P01116, G12A)
REPORTED_RELATION: >
pIC50: 9.16
--
CHEMICAL_STRING: CCc1c(F)ccc2cc3[nH]nc(C)c3c(-c3nc4c5c(nc(OC[C@@]67CCCN6C[C@H](F)C7)nc5c3F)N3CCCOC[C@H]3CO4)c12
TESTED_SYSTEM: KRAS G12A (Homo sapiens (Human), UniProt P01116, G12A)
REPORTED_RELATION: =
pIC50: 9.00

----------
The following molecules are shown together with reported pIC50 values.
target: KRAS G12V (Homo sapiens (Human), UniProt P01116, G12V); assay: SOS-catalyzed nucleotide exchange assay (GNE), KRAS G12V; details: TR-FRET, 60 min preincubation
Sequence (P01116 other isoform, or with tags, fused parts or gaps G12V (already in the parent)): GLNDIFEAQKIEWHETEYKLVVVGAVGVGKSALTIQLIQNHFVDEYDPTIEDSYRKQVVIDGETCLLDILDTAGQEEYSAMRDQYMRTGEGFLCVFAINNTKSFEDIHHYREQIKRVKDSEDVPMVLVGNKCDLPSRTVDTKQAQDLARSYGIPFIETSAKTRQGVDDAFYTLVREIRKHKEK
pIC50: −log10 of the molar value.

CHEMICAL_STRING: F/C=C1/CN2CCC[C@@]2(COc2nc3c4c(nc(-c5c(C6CC6)c(Cl)cc6[nH]ncc56)c(F)c4n2)OC[C@@H]2COCCCN32)C1
pIC50: 8.89

CHEMICAL_STRING: CCc1c(F)ccc2cc3[nH]nc(C)c3c(-c3nc4c5c(nc(OC[C@@]67CCCN6C/C(=C\F)C7)nc5c3F)N3CCCOC[C@H]3CO4)c12
pIC50: 8.55

CHEMICAL_STRING: CCc1c(F)ccc2cc3[nH]nc(C)c3c(-c3nc4c5c(nc(OC[C@@]67CCCN6C[C@H](F)C7)nc5c3F)N3CCCOC[C@H]3CO4)c12
pIC50: 8.82

----------
assay: Dog IV/PO pharmacokinetic studies; format: in vivo; settings: male, plasma, IV 0.25 mg/kg (Ex-2 0.05 mg/kg), read-out: Vd
OBSERVATION_TYPE: Vd

COMPOUND: CCc1c(F)ccc2cc3[nH]nc(C)c3c(-c3nc4c5c(nc(OC[C@@]67CCCN6C[C@H](F)C7)nc5c3F)N3CCCOC[C@H]3CO4)c12 [Ex-6]
TEST_RESULT: 3.7 L/kg
--
COMPOUND: Fc1c(-c2c(C3CC3)c(Cl)cc3[nH]ncc23)nc2c3c(nc(OC[C@@]45CCCN4C[C@H](F)C5)nc13)N1CCCOC[C@H]1CO2 [Ex-3]
TEST_RESULT: 2.2 L/kg

----------
test system: SW620 cells (homozygous KRAS-G12V); test: Cellular phospho-ERK assay, SW620 cells; format: cell-based; settings: Homo sapiens, SW-620, 2 h, p-ERK vs. total ERK, read-out: SW620 pERK IC50
The following molecules are shown together with reported IC50 values.
OBSERVATION_TYPE: IC50 (nM)

MOLECULE: CCc1c(F)ccc2cc3[nH]nc(C)c3c(-c3nc4c5c(nc(OC[C@@]67CCCN6C[C@H](F)C7)nc5c3F)N3CCCOC[C@H]3CO4)c12 [Ex-6]
TESTED_SYSTEM: SW620 cells (homozygous KRAS-G12V)
UNIT: nM
REPORTED_RELATION: =
TEST_RESULT: 3.4
--
MOLECULE: CCc1c(F)ccc2cc3[nH]ncc3c(-c3nc4c5c(nc(OC[C@@]67CCCN6C/C(=C\F)C7)nc5c3F)N3CCCOC[C@H]3CO4)c12 [Ex-4]
TESTED_SYSTEM: SW620 cells (homozygous KRAS-G12V)
UNIT: nM
REPORTED_RELATION: <
TEST_RESULT: 1.5
--
MOLECULE: F/C=C1\CN2CCC[C@@]2(COc2nc3c4c(nc(-c5c(C6(F)CC6)c(Cl)cc6[nH]ncc56)c(F)c4n2)OC[C@@H]2COCCCN32)C1 [Ex-5]
TESTED_SYSTEM: SW620 cells (homozygous KRAS-G12V)
UNIT: nM
REPORTED_RELATION: =
TEST_RESULT: 1.3
--
MOLECULE: Fc1c(-c2c(C3CC3)c(Cl)cc3[nH]ncc23)nc2c3c(nc(OC[C@@]45CCCN4C[C@H](F)C5)nc13)N1CCCOC[C@H]1CO2 [Ex-3]
TESTED_SYSTEM: SW620 cells (homozygous KRAS-G12V)
UNIT: nM
REPORTED_RELATION: =
TEST_RESULT: 3.9

----------
Target: KRAS G12R (Homo sapiens (Human), UniProt P01116, G12R)
Sequence (P01116 other isoform, or with tags, fused parts or gaps G12R (already in the parent)): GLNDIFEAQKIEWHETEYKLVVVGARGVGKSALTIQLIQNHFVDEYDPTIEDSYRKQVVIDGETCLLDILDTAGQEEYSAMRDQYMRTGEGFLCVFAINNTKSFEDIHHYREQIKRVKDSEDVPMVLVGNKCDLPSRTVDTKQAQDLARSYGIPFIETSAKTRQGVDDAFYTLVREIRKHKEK
Assay: SOS-catalyzed nucleotide exchange assay (GNE), KRAS G12R
Conditions: TR-FRET, 60 min preincubation
Method: Procedure for SOS-Catalyzed Nucleotide Exchange Assay for KRAS-WT, G12C/D/V/A/R/S, G13D, Q61H, HRAS-WT, and NRAS-WT Recombinant KRAS-G12C protein used in this assay has an additional triple mutation (C51S/C80L/C118S). […] The time-resolved fluorescence resonance energy transfer (TR-FRET) signal is measured on an Envision (PerkinElmer) plate reader: Excitation filter=340 nm; emission1=495 nm; emission2=520 nm; dichroic mirror=D400/D505; delay time=100 ms. […]
pIC50: −log10 of the molar value.

COMPOUND: CCc1c(F)ccc2cc3[nH]nc(C)c3c(-c3nc4c5c(nc(OC[C@@]67CCCN6C[C@H](F)C7)nc5c3F)N3CCCOC[C@H]3CO4)c12 [Ex-6]
TESTED_SYSTEM: KRAS G12R (Homo sapiens (Human), UniProt P01116, G12R)
REPORTED_RELATION: =
pIC50: 8.92

COMPOUND: F/C=C1\CN2CCC[C@@]2(COc2nc3c4c(nc(-c5c(C6(F)CC6)c(Cl)cc6[nH]ncc56)c(F)c4n2)OC[C@@H]2COCCCN32)C1 [Ex-5]
TESTED_SYSTEM: KRAS G12R (Homo sapiens (Human), UniProt P01116, G12R)
REPORTED_RELATION: =
pIC50: 8.89

COMPOUND: CCc1c(F)ccc2cc3[nH]nc(C)c3c(-c3nc4c5c(nc(OC[C@@]67CCCN6C/C(=C\F)C7)nc5c3F)N3CCCOC[C@H]3CO4)c12 [Ex-7]
TESTED_SYSTEM: KRAS G12R (Homo sapiens (Human), UniProt P01116, G12R)
REPORTED_RELATION: =
pIC50: 8.89

COMPOUND: CCc1c(F)ccc2cc3[nH]ncc3c(-c3nc4c5c(nc(OC[C@@]67CCCN6C[C@H](F)C7)nc5c3F)N3CCCOC[C@H]3CO4)c12 [Ex-2]
TESTED_SYSTEM: KRAS G12R (Homo sapiens (Human), UniProt P01116, G12R)
REPORTED_RELATION: >
pIC50: 9.16

COMPOUND: F/C=C1/CN2CCC[C@@]2(COc2nc3c4c(nc(-c5c(C6CC6)c(Cl)cc6[nH]ncc56)c(F)c4n2)OC[C@@H]2COCCCN32)C1 [Ex-1]
TESTED_SYSTEM: KRAS G12R (Homo sapiens (Human), UniProt P01116, G12R)
REPORTED_RELATION: >
pIC50: 9.16

COMPOUND: CCc1c(F)ccc2cc3[nH]ncc3c(-c3nc4c5c(nc(OC[C@@]67CCCN6C/C(=C\F)C7)nc5c3F)N3CCCOC[C@H]3CO4)c12 [Ex-4]
TESTED_SYSTEM: KRAS G12R (Homo sapiens (Human), UniProt P01116, G12R)
REPORTED_RELATION: >
pIC50: 9.16
